Experiment: Ocular tissue concentrations (aqueous humor, vitreous humor, iris, retina, choroid, cornea) after topical ocular, subcutaneous and intravitreal administration
Type: in vivo, New Zealand White rabbits
Details: New Zealand White, rabbit, iris, subcutaneous, 5 mg/kg/dose, TABLE 16: Iris, 1 hr; free acid, subcutaneous 5 mg/kg/dose, Group 3; read-out: Iris Average
Readout Type: concentration at 1 h (ng/g)
Answer format: numeric, ng/g implied, no suffix.

Entry COC(=O)N[C@@H](Cc1ccccc1)C(=O)N[C@@H](Cc1ccc(NS(=O)(=O)O)cc1)c1csc(-c2cccs2)n1 ; concentration at 1 h = 58

###

Test: Ocular tissue concentrations (aqueous humor, vitreous humor, iris, retina, choroid, cornea) after topical ocular, subcutaneous and intravitreal administration
Format: in vivo, New Zealand White rabbits
Details: New Zealand White, rabbit, iris, subcutaneous, 5 mg/kg/dose, Iris, 2 hr; free acid, subcutaneous 5 mg/kg/dose, Group 3; read-out: Iris Average
Readout Type: concentration at 2 h (ng/g)
Answer format: numeric, ng/g implied, no suffix.

Entry COC(=O)N[C@@H](Cc1ccccc1)C(=O)N[C@@H](Cc1ccc(NS(=O)(=O)O)cc1)c1csc(-c2cccs2)n1 [Compound 1] ; concentration at 2 h = 27.6

###

Experiment: Plasma concentrations and pharmacokinetic parameters after topical ocular, subcutaneous and intravitreal administration
Assay type: in vivo, New Zealand White rabbits
Conditions: New Zealand White, rabbit, plasma, sc, 5 mg/kg, plasma; subcutaneous 5 mg/kg/dose, solution; read-out: tmax
Where a name gives a salt, the structure may show the parent alone.
Readout Type: Tmax (min)
Answer format: numeric, min implied, no suffix.

Entry COC(=O)N[C@@H](Cc1ccccc1)C(=O)N[C@@H](Cc1ccc(NS(=O)(=O)O)cc1)c1csc(-c2cccs2)n1 [Compound 1 sodium salt] ; Tmax = 15

###

Assay: Ocular tissue concentrations (aqueous humor, vitreous humor, iris, retina, choroid, cornea) after topical ocular, subcutaneous and intravitreal administration
Assay type: in vivo, New Zealand White rabbits
Details: New Zealand White, rabbit, aqueous humor, other: intravitreal, 2.5 mg per eye, Group 4 intravitreal 2.5 mg per eye; 6.0 hr; read-out: aqueous humor Average Conc.
Where a name gives a salt, the structure may show the parent alone.
Readout Type: concentration at 6 hr
Number plus unit, in that order.

Entry COC(=O)N[C@@H](Cc1ccccc1)C(=O)N[C@@H](Cc1ccc(NS(=O)(=O)O)cc1)c1csc(-c2cccs2)n1 [Compound 1 sodium salt] ; concentration at 6 hr = 80600 ng/g

###

Experiment: Ocular tissue concentrations (aqueous humor, vitreous humor, iris, retina, choroid, cornea) after topical ocular, subcutaneous and intravitreal administration
Type: in vivo, New Zealand White rabbits
Details: New Zealand White, rabbit, vitreous humor, subcutaneous, 5 mg/kg, Group 3 subcutaneous 5 mg/kg; 1.0 hr; read-out: vitreous humor Conc., individual eyes (OD, OS)
Readout Type: concentration at 1 hr (ng/mL)
Answer format: numeric, ng/mL implied, no suffix.

Entry COC(=O)N[C@@H](Cc1ccccc1)C(=O)N[C@@H](Cc1ccc(NS(=O)(=O)O)cc1)c1csc(-c2cccs2)n1 [Compound 1 free acid] ; concentration at 1 hr = 0.407

###

Assay: Plasma concentrations and pharmacokinetic parameters after topical ocular, subcutaneous and intravitreal administration
Assay type: in vivo, New Zealand White rabbits
Conditions: New Zealand White, rabbit, plasma, other: intravitreal, 2.5 mg/eye, intravitreal 2.5 mg/eye (~1.54 mg/kg), suspension; 48.0 hr; read-out: plasma Conc., individual rabbit
Readout Type: concentration at 48 h (ng/mL)
Answer format: numeric, ng/mL implied, no suffix.

Entry COC(=O)N[C@@H](Cc1ccccc1)C(=O)N[C@@H](Cc1ccc(NS(=O)(=O)O)cc1)c1csc(-c2cccs2)n1 [Compound 1 free acid] ; concentration at 48 h = 2.69

###

Assay: Ocular tissue concentrations (aqueous humor, vitreous humor, iris, retina, choroid, cornea) after topical ocular, subcutaneous and intravitreal administration
Assay type: in vivo, New Zealand White rabbits
Details: New Zealand White, rabbit, choroid homogenate, other: intravitreal, 2.5 mg/eye, Choroid homogenate, 48 hr, right eye, intravitreal 2.5 mg/eye (group 5), individual animals; read-out: Conc. (ng/mL) OD
Procedure: To measure the concentration of Compound 1 in plasma and ocular tissues following topical ocular, subcutaneous, and intravitreal administration, New Zealand White rabbits were administered Compound 1, and plasma and ocular samples were collected at pre-determined time points. […] Ocular tissue samples from both eyes of each animal were collected and weights were recorded. Plasma and ocular tissue sample concentrations of Compound 1 were determined by LC-MS/MS. […]
Readout Type: concentration at 48 hr

Entry COC(=O)N[C@@H](Cc1ccccc1)C(=O)N[C@@H](Cc1ccc(NS(=O)(=O)O)cc1)c1csc(-c2cccs2)n1 ; concentration at 48 hr = 9940 ng/mL

###

Assay: Ocular tissue concentrations (aqueous humor, vitreous humor, iris, retina, choroid, cornea) after topical ocular, subcutaneous and intravitreal administration
Format: in vivo, New Zealand White rabbits
Details: New Zealand White, rabbit, choroid homogenate, other: intravitreal, 2.5 mg/eye, Choroid homogenate, 48 hr, left eye, intravitreal 2.5 mg/eye (group 5), individual animals; read-out: Conc. (ng/mL) OS
Readout Type: concentration at 48 hr (ng/mL)
Answer format: numeric, ng/mL implied, no suffix.

Entry COC(=O)N[C@@H](Cc1ccccc1)C(=O)N[C@@H](Cc1ccc(NS(=O)(=O)O)cc1)c1csc(-c2cccs2)n1 ; concentration at 48 hr = 9320

###

Assay: Ocular tissue concentrations (aqueous humor, vitreous humor, iris, retina, choroid, cornea) after topical ocular, subcutaneous and intravitreal administration
Format: in vivo, New Zealand White rabbits
Settings: New Zealand White, rabbit, choroid homogenate, subcutaneous, 5 mg/kg/dose, TABLE 16: Choroid homogenate, 0.5 hr, OS; free acid, subcutaneous 5 mg/kg/dose, Group 3; read-out: Choroid Conc. (ng/mL) OS
Readout Type: concentration at 0.5 h (ng/mL)
Answer format: numeric, ng/mL implied, no suffix.

Entry COC(=O)N[C@@H](Cc1ccccc1)C(=O)N[C@@H](Cc1ccc(NS(=O)(=O)O)cc1)c1csc(-c2cccs2)n1 [Compound 1] ; concentration at 0.5 h = 7.55

###

Test: Plasma concentrations and pharmacokinetic parameters after topical ocular, subcutaneous and intravitreal administration
Type: in vivo, New Zealand White rabbits
Details: New Zealand White, rabbit, plasma, topical or ocular, 1.2 mg; topical ocular 1.2 mg/eye (~0.7 mg/kg/dose), solution
Protocol: To measure the concentration of Compound 1 in plasma and ocular tissues following topical ocular, subcutaneous, and intravitreal administration, New Zealand White rabbits were administered Compound 1, and plasma and ocular samples were collected at pre-determined time points. […] Each blood sample was collected on Day 3 post dose at pre-determined time points from the rabbits via an ear vessel and placed into chilled polypropylene tubes containing sodium heparin as an anticoagulant. […]
Where a name gives a salt, the structure may show the parent alone.
Readout Type: Cmax (ng/mL)
Answer format: numeric, ng/mL implied, no suffix.

Entry COC(=O)N[C@@H](Cc1ccccc1)C(=O)N[C@@H](Cc1ccc(NS(=O)(=O)O)cc1)c1csc(-c2cccs2)n1 [Compound 1 sodium salt] ; Cmax = 7.48

###

Assay: Ocular tissue concentrations (aqueous humor, vitreous humor, iris, retina, choroid, cornea) after topical ocular, subcutaneous and intravitreal administration
Type: in vivo, New Zealand White rabbits
Conditions: New Zealand White, rabbit, cornea homogenate, subcutaneous, 5 mg/kg/dose, Cornea homogenate, 4 hr, OS; free acid, subcutaneous 5 mg/kg/dose, Group 3; read-out: Cornea Conc. (ng/mL) OS
Readout Type: concentration at 4 h (ng/mL)
Answer format: numeric, ng/mL implied, no suffix.

Entry COC(=O)N[C@@H](Cc1ccccc1)C(=O)N[C@@H](Cc1ccc(NS(=O)(=O)O)cc1)c1csc(-c2cccs2)n1 ; concentration at 4 h = 2.51

###

Assay: Ocular tissue concentrations (aqueous humor, vitreous humor, iris, retina, choroid, cornea) after topical ocular, subcutaneous and intravitreal administration
Assay type: in vivo, New Zealand White rabbits
Settings: New Zealand White, rabbit, choroid homogenate, other: intravitreal, 2.5 mg/eye, Choroid homogenate, 6.0 hr, left eye, intravitreal 2.5 mg/eye (group 5), individual animals; read-out: Conc. (ng/mL) OS
Readout Type: concentration at 6 hr (ng/mL)
Answer format: numeric, ng/mL implied, no suffix.

Entry COC(=O)N[C@@H](Cc1ccccc1)C(=O)N[C@@H](Cc1ccc(NS(=O)(=O)O)cc1)c1csc(-c2cccs2)n1 ; concentration at 6 hr = 63400

###

Assay: Ocular tissue concentrations (aqueous humor, vitreous humor, iris, retina, choroid, cornea) after topical ocular, subcutaneous and intravitreal administration
Type: in vivo, New Zealand White rabbits
Details: New Zealand White, rabbit, cornea homogenate, other: intravitreal, 2.5 mg/eye, Cornea homogenate, 24 hr, right eye, intravitreal 2.5 mg/eye (group 5), individual animals; read-out: Conc. (ng/mL) OD
Description: To measure the concentration of Compound 1 in plasma and ocular tissues following topical ocular, subcutaneous, and intravitreal administration, New Zealand White rabbits were administered Compound 1, and plasma and ocular samples were collected at pre-determined time points. […] Ocular tissue samples from both eyes of each animal were collected and weights were recorded. Plasma and ocular tissue sample concentrations of Compound 1 were determined by LC-MS/MS. […]
Readout Type: concentration at 24 hr (ng/mL)
Answer format: numeric, ng/mL implied, no suffix.

Entry COC(=O)N[C@@H](Cc1ccccc1)C(=O)N[C@@H](Cc1ccc(NS(=O)(=O)O)cc1)c1csc(-c2cccs2)n1 [Compound 1] ; concentration at 24 hr = 1520
